Tested on: OVCAR-4 ovarian
Test: NCI-60 one-dose screen, 48 h
Conditions: 10 µM unless noted
Compounds without any hit were thinned out: in the full panel of roughly 83,000, 20% have a hit. Active and inactive are the calls of the source. How the source made its calls: active means growth percent below 10; inactive means the rest.
Possible outcomes: active, inactive

{"molecule": "CCOC(=O)NCCc1nc2c([nH]1)c(=O)n(C)c(=O)n2C", "class-name": "inactive"}
{"molecule": "COc1ccc(-c2cn(-c3ccc(Cl)cc3)c(=S)[nH]2)cc1OC", "class-name": "inactive"}
{"molecule": "Cc1ccc(SC2c3ccc(C)cc3Oc3nc(N)c(C#N)c(N)c32)cc1 (centres undefined)", "class-name": "inactive"}
{"molecule": "CCN1CCC[C@H]1c1cc(O)c2c(c1OC)C[C@H]1C[C@H]3[C@H](N)C(=O)C(C(N)=O)=C(O)[C@@]3(O)C(=O)C1=C2O", "class-name": "active"}
{"molecule": "CN(C)[C@@H]1C(=O)C(C(N)=O)=C(O)[C@@]2(O)C(=O)C3=C(O)c4c(O)cc(CN5CCc6ccccc6C5)c(Cl)c4C[C@H]3C[C@@H]12", "class-name": "active"}
{"molecule": "CCSc1nc(Cl)c(C#N)c(-c2ccc(F)cc2)n1", "class-name": "inactive"}
{"molecule": "COc1cc(/C=C/CO)cc(OC)c1O[C@@H]1O[C@H](CO)[C@@H](O)[C@H](O)[C@H]1O", "class-name": "inactive"}
{"molecule": "CC(=O)c1cnc(-c2ccccc2)nc1CBr", "class-name": "inactive"}
{"molecule": "COc1ccc(/C=C/C(=O)Nc2ncnc3nc[nH]c23)cc1", "class-name": "inactive"}
